Test: Phase II trial, PK analysis: pre-dose and 1 h post-dose blood levels by HPLC
Type: in vivo, human
Conditions: human, serum, po, 140 mg, median, Day 1 (n = 6), 1 hour after 140 mg oral dose; read-out: C max
parameter: Cmax (ng/mL)
All answers are understood in ng/mL, so give the number only.

Field request: Cmax | item: Nc1cc(C(F)(F)F)c(-c2nc(N3CCOCC3)nc(N3CCOCC3)n2)cn1
574

---

Assay: Phase II trial, PK analysis: pre-dose and 1 h post-dose blood levels by HPLC
Type: in vivo, human
Conditions: human, serum, po, 140 mg, median, Day 8 (n = 6), 1 hour after oral dose; read-out: C max
parameter: Cmax (ng/mL)
All answers are understood in ng/mL, so give the number only.

Field request: Cmax | item: Nc1cc(C(F)(F)F)c(-c2nc(N3CCOCC3)nc(N3CCOCC3)n2)cn1 [Bimiralisib]
574

---

Assay: Phase II trial, PK analysis: pre-dose and 1 h post-dose blood levels by HPLC
Format: in vivo, human
Settings: human, serum, po, 140 mg, median, Day 43 (n = 4), 1 hour after oral dose; read-out: C max
parameter: Cmax (ng/mL)
All answers are understood in ng/mL, so give the number only.

Field request: Cmax | item: Nc1cc(C(F)(F)F)c(-c2nc(N3CCOCC3)nc(N3CCOCC3)n2)cn1 [Bimiralisib]
526

---

Test: Phase II trial, PK analysis: pre-dose and 1 h post-dose blood levels by HPLC
Assay type: in vivo, human
Details: human, serum, oral, 140 mg, 140-mg dose, current study; read-out: Maximum Cmax value
parameter: Cmax
The reply should consist of the numeric value with the unit placed after it.

Field request: Cmax | item: Nc1cc(C(F)(F)F)c(-c2nc(N3CCOCC3)nc(N3CCOCC3)n2)cn1
970 ng/mL

---

Assay: Phase II trial, PK analysis: pre-dose and 1 h post-dose blood levels by HPLC
Format: in vivo, human
Details: human, serum, po, 140 mg, median, Day 64 (n = 5), 1 hour after oral dose; read-out: C max
parameter: Cmax (ng/mL)
All answers are understood in ng/mL, so give the number only.

Field request: Cmax | item: Nc1cc(C(F)(F)F)c(-c2nc(N3CCOCC3)nc(N3CCOCC3)n2)cn1 [Bimiralisib]
546
